- assayName: growth modulation of vineyard yeast isolate – strain RM11-1a, OD600, basal, 24 h, primary screen (AID 1177);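 also: cultures grown under basal conditions with no added stressor; test concentration not given here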
- conditionContext: S. cerevisiae RM11-1a growth, OD600, 24 h; higher = more signal, called active from +8 up or from −8 down
Where z-score equals or exceeds -0.2, the correct label is satisfied; where it does not, the label is not satisfied.

{"columns": ["compound", "cat"],
 "data": [
  ["COC(=O)[C@@]1(Cc2ccccc2)[C@H]2c3cc(C(=O)N4CCCC4)n(Cc4ccccc4)c3C[C@H]2CN1C(=O)c1ccccc1", "satisfied"],
  ["COc1ccc(C#Cc2ccc3c(c2)[C@]2(C(=O)N3)[C@H](c3ccc(OCCO)cc3)N3[C@H](c4ccccc4)[C@H](c4ccccc4)OC(=O)[C@H]3[C@@H]2C(=O)N2CCN(c3ncccn3)CC2)cc1", "satisfied"],
  ["C[N+](C)(C)CCCC[C@@H]1NC(=O)[C@@H]2C[C@H](C(=O)O)[C@H](c3cccc(OCCO)c3)N2C1=O", "satisfied"],
  ["C=CCN1C(=O)[C@@]2(O[C@@H](CCO)[C@H]([Si](C)(C)c3ccc(OC)cc3)[C@H]2C)c2cc(NC(=O)[C@H](C)O)ccc21", "satisfied"],
  ["CCCC[C@H]1OB(O)C[C@H]2C1=C(COc1ccccc1)Cn1c(=O)n(-c3ccccc3)c(=O)n12", "satisfied"],
  ["CN(C)CCCCCCNC(=O)[C@@H]1C[C@@H]2C(=O)NCC(=O)N2[C@@H]1c1ccc(O)cc1", "not satisfied"],
  ["C=CC[C@@]1(C(=O)NCC(O)CO)N=C(c2ccc(OCCCO)cc2)O[C@@H]1c1ccccc1 (stereo not given in full)", "satisfied"],
  ["[N-]=[N+]=NCc1ccccc1C[C@]1(C(=O)NCCN2CCOCC2)COC(c2ccc(OCCCO)cc2)=N1", "not satisfied"],
  ["CCOC(=O)C1=CC[C@@H](c2cccc(Br)c2)N(S(=O)(=O)c2ccc(C)cc2)[C@H]1c1ccc([N+](=O)[O-])cc1", "not satisfied"],
  ["COCCCNC(=O)[C@]1(CCS(=O)(=O)c2ccccc2)N=C(c2ccc(OCCCO)cc2)O[C@@H]1c1ccccc1", "not satisfied"],
  ["O=C1OCCC=C[C@H]2OC34C=CCN(Cn5nnc6ccccc65)C(=O)[C@H]3N(CCCCCO)C(=O)[C@@H]4C12 (stereo not given in full)", "satisfied"],
  ["O=C1N(Cc2ccccc2)c2ccccc2[C@H]2OC(c3ccc(OCCCO)cc3)=N[C@@]12CCS(=O)(=O)c1ccccc1", "satisfied"],
  ["Cc1ccc(N2C(=O)c3ccccc3[C@](C)(C(=O)NC(C)C)[C@@H]2c2ccc(CO)cc2)nc1", "not satisfied"],
  ["O=C1C2C=CC(C(O)c3ccccn3)N(Nc3ccccc3)C2C(=O)N1c1ccccc1 (stereo not given)", "satisfied"],
  ["O=C1c2ccccc2C(=O)C2CC([C@H]3Oc4ccccc4S(=O)(=O)N4CCC[C@@H]34)=CCC12 (stereo not given in full)", "not satisfied"],
  ["O=[N+]([O-])c1ccc(C[n+]2ccc(-c3ccc(CO)cc3)cc2)o1", "satisfied"],
  ["CC(C)(C)OC(=O)CC[C@@]1(C(=O)N2CCCCC2)N=C(c2ccc(OCCCO)cc2)O[C@@H]1c1ccccc1CN=[N+]=[N-]", "satisfied"],
  ["OCCCC1=CC(c2cccs2)N(Cc2cccc(OC(F)(F)F)c2)CC1 (stereo not given)", "not satisfied"],
  ["CCOC(=O)C1=CC[C@@H](c2ccccc2)N(S(=O)(=O)c2ccc(C)cc2)[C@H]1C=C(C)C", "satisfied"],
  ["COc1ccc(CCNC(=O)[C@@H]2c3ccccc3C(=O)N(Cc3ccccc3C(F)(F)F)[C@H]2c2ccc(CO)cc2)cc1", "satisfied"]
]}
